I'd appreciate it if you could supply pStat5 IC50 GM-CSF, TF-1 bla reporter values for the items below.
Measurement target: T1, human CD131 (human, UniProt P32927 17-897)
T1 sequence: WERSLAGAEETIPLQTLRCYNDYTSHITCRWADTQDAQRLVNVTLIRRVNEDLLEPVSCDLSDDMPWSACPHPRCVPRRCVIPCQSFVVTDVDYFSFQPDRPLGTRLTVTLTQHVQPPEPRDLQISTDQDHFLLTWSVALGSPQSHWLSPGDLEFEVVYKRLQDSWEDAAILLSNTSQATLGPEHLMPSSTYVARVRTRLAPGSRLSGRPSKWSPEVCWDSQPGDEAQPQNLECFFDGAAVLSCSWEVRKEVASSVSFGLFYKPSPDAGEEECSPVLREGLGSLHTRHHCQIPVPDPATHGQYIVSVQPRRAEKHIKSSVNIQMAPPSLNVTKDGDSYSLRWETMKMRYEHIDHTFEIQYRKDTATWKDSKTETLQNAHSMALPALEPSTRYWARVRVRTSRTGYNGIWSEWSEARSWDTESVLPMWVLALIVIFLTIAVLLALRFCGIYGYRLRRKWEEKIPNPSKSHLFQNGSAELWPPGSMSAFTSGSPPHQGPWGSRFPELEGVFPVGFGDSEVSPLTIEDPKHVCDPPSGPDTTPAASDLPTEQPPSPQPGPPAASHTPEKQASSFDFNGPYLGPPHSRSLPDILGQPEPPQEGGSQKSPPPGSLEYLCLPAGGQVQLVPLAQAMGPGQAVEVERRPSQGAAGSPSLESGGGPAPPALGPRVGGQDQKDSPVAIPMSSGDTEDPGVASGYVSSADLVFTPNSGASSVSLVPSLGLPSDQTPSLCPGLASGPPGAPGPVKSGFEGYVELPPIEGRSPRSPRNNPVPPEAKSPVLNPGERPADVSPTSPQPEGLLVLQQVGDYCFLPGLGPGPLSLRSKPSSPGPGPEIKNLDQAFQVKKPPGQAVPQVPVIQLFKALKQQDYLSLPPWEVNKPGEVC
Assay summary: cell-based or functional assay
Give bare numbers, in nM.

As a guide, the following entries are already answered.
binder="9A2 (antibody, IgG4, V domains shown, IgG4pK (IgG4 S241P, kappa); also called parental 9A2) VH: EVQLLESGGGLVQPGGSLRLSCAASGFTFSHYHMLWVRQAPGKGLEWVSSIRSSGGFTYYADSVKGRFTISRDNSKNTLYLQMNSLRAEDTAVYYCARFYDSFFDIWGQGTMVTVSS VL: DIQMTQSPSSVSASVGDRVTITCRASQGISSWLAWYQQKPGKAPKLLIYAASSLQSGVPSRFSGSGSGTDFTLTISSLQPEDFATYYCQQANSFPITFGQGTRLEIKR" quantity_measured="pStat5 IC50 GM-CSF, TF-1 bla reporter" unit_name=nM measured_value=40
binder="9A2-VR24 (antibody, V domains shown) VH: EVQLLESGGGLVQPGGSLRLSCAASGFTFPWYRVHWVRQAPGKGLEWVSSIRSSGGFTYYADSVKGRFTISRDNSKNTLYLQMNSLRAEDTAVYYCARFYDSFFDIWGQGTMVTVSS VL: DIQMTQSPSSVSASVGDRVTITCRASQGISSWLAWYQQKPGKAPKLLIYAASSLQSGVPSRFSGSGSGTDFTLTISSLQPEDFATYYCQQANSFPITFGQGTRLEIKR" quantity_measured="pStat5 IC50 GM-CSF, TF-1 bla reporter" unit_name=nM measured_value=8.6
binder="9A2-VR23 (antibody, V domains shown) VH: EVQLLESGGGLVQPGGSLRLSCAASGFTFEWYRVHWVRQAPGKGLEWVSSIRSSGGFTYYADSVKGRFTISRDNSKNTLYLQMNSLRAEDTAVYYCARFYDSFFDIWGQGTMVTVSS VL: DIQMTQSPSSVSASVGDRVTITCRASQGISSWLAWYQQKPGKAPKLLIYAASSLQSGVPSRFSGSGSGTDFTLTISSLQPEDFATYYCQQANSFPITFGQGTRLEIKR" quantity_measured="pStat5 IC50 GM-CSF, TF-1 bla reporter" unit_name=nM measured_value=24

Value sought for every listed binder: pStat5 IC50 GM-CSF, TF-1 bla reporter.
1. 9A2-VR26 (antibody, V domains shown) VH: EVQLLESGGGLVQPGGSLRLSCAASGFTFIHYRVHWVRQAPGKGLEWVSSIRSSGGFTYYADSVKGRFTISRDNSKNTLYLQMNSLRAEDTAVYYCARFYDSFFDIWGQGTMVTVSS VL: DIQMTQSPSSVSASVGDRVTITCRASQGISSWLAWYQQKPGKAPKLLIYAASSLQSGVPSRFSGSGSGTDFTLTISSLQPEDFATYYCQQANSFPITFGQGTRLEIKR
2. 9A2-VR27 (antibody, V domains shown) VH: EVQLLESGGGLVQPGGSLRLSCAASGFTFTHYRVHWVRQAPGKGLEWVSSIRSSGGFTYYADSVKGRFTISRDNSKNTLYLQMNSLRAEDTAVYYCARFYDSFFDIWGQGTMVTVSS VL: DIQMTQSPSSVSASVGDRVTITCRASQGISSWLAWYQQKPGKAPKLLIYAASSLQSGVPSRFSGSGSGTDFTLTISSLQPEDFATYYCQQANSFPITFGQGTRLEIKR
3. 9A2-VR39 (antibody, V domains shown) VH: EVQLLESGGGLVQPGGSLRLSCAASGFTFSHYHMLWVRQAPGKGLEWVSSINGRGRVTYYADSVKGRFTISRDNSKNTLYLQMNSLRAEDTAVYYCARFYDSFFDIWGQGTMVTVSS VL: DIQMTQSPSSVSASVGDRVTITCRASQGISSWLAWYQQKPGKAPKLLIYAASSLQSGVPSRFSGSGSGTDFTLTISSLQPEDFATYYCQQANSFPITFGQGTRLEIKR

Resp:
[23.6, 8.5, 4.1]
